assay: Solubility of Compound 1 in solvents; assay type: physicochemical; conditions: diethyl sebacate, oil or lipid
readout_kind: solubility (mg/mL)
Respond with the bare value in mg/mL.

# query: solubility of entry `Cc1cccc(-n2ncc(C)c2-c2cc3cnccc3s2)n1`
13.1

* * *

assay: Solubility of Compound 1 in solvents; type: physicochemical; conditions: DMSO, organic solvent or mixture
readout_kind: solubility (mg/mL)
API: value field is a number in mg/mL; no unit string.

I'd like to know its solubility. The compound in question is `Cc1cccc(-n2ncc(C)c2-c2cc3cnccc3s2)n1`
83.7

* * *

assay: Solubility of Compound 1 in solvents; assay type: physicochemical; conditions: Transcutol (DEGEE), organic solvent or mixture
readout_kind: solubility (mg/mL)
Report as a plain number; the unit mg/mL is understood.

Recorded solubility for `Cc1cccc(-n2ncc(C)c2-c2cc3cnccc3s2)n1` , please?
115

* * *

Assay: Solubility of Compound 1 in solvents
Assay type: physicochemical
Conditions: phenethyl alcohol, organic solvent or mixture
Text: Tables 2 and 3 provide the solubility of the exemplary ALK-5 kinase inhibitor Compound 1 in various solvents.
readout_kind: solubility

Can you share its solubility? I mean this compound: `Cc1cccc(-n2ncc(C)c2-c2cc3cnccc3s2)n1`
> 300 mg/mL

* * *

assay: Solubility of Compound 1 in solvents; format: physicochemical; settings: medium chain triglycerides, oil or lipid
readout_kind: solubility
Show the value, then the unit it is measured in.

Need solubility of `Cc1cccc(-n2ncc(C)c2-c2cc3cnccc3s2)n1` , thanks.
5310 µg/mL

* * *

experiment: Solubility of Compound 1 in solvents; assay type: physicochemical; conditions: mineral oil, oil or lipid
readout_kind: solubility (µg/mL)
A number alone suffices; assume µg/mL.

// solubility lookup, key: `Cc1cccc(-n2ncc(C)c2-c2cc3cnccc3s2)n1`
540

* * *

experiment: Solubility of Compound 1 in solvents; assay type: physicochemical; conditions: octyldodecanol, oil or lipid
readout_kind: solubility (µg/mL)
Give just the number in µg/mL; leave the unit off.

Requested field: solubility. Item: `Cc1cccc(-n2ncc(C)c2-c2cc3cnccc3s2)n1`
5370

* * *

experiment: Solubility of Compound 1 in solvents; assay type: physicochemical; settings: sodium citrate buffer, pH 3, aqueous buffer; Sod.Citrate buffer (pH3)
readout_kind: solubility (µg/mL)
Give just the numeric value; µg/mL need not be written.

Find the recorded solubility belonging to `Cc1cccc(-n2ncc(C)c2-c2cc3cnccc3s2)n1` and report it.
2190

* * *

assay: Solubility of Compound 1 in solvents; assay type: physicochemical; conditions: Dimethicone 100 CST, oil or lipid
readout_kind: solubility (µg/mL)
A number alone suffices; assume µg/mL.

Could you share which solubility value was measured for `Cc1cccc(-n2ncc(C)c2-c2cc3cnccc3s2)n1` ?
110

* * *

Experiment: Solubility of Compound 1 in solvents
Type: physicochemical
Conditions: Cycolmethicone NF, oil or lipid
From the text: Tables 2 and 3 provide the solubility of the exemplary ALK-5 kinase inhibitor Compound 1 in various solvents.
readout_kind: solubility

Can you look up the measured solubility of `Cc1cccc(-n2ncc(C)c2-c2cc3cnccc3s2)n1` for me?
190 µg/mL
